# testedSystem: 5-hydroxytryptamine receptor 1D (Homo sapiens)
# procedureText: Ratio of receptor binding affinities of 5-hydroxytryptamine 1D receptor alpha vs 5-hydroxytryptamine 1D receptor beta
# Sequence (P28221 whole entry): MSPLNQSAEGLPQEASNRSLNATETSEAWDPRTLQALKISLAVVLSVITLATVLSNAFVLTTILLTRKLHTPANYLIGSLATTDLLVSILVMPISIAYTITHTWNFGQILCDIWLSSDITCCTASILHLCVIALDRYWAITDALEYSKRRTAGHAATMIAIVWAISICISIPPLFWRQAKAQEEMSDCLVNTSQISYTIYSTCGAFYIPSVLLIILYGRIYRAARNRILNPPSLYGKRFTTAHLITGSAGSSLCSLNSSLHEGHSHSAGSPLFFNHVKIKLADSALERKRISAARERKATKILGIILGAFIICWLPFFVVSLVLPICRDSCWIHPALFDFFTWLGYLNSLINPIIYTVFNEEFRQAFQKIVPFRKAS
A collection of molecules and their measured Ratio
Field format: numeric only.

# count of solved cases: 3
NCCc1c[nH]c2ccc(OS(=O)(=O)C(F)(F)F)cc12    5
CCCN(CCC)CCc1c[nH]c2ccc(OS(=O)(=O)C(F)(F)F)cc12    1.3
CN(C)CCc1c[nH]c2ccc(OS(=O)(=O)C(F)(F)F)cc12    10

From here, focus on the item given below.
I have this molecule here, "CCN(CC)CCc1c[nH]c2ccc(OS(=O)(=O)C(F)(F)F)cc12" , and I need its recorded Ratio.
14.3

###

# testedSystem: 5-hydroxytryptamine receptor 1A (Homo sapiens, UniProt P08908)
# Sequence (P08908 whole entry): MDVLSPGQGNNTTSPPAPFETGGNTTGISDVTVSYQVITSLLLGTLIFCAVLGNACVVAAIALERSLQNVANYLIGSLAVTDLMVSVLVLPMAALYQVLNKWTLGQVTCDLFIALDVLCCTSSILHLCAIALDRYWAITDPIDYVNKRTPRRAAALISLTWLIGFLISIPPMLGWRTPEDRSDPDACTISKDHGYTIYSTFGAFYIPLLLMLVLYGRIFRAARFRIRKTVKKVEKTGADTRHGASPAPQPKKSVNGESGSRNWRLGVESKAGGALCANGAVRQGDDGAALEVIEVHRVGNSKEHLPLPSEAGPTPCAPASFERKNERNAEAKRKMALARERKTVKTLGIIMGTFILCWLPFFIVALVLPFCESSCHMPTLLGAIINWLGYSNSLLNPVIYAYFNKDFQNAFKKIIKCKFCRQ
A collection of compounds and their measured pKi
Scale: pKi equals -log10([C]), with [C] in mol/L.

CN(C)CCc1c[nH]c2ccc(OS(=O)(=O)C(F)(F)F)cc12    7.40
COc1ccc(CNC(=O)/C=C/c2ccc3[nH]cc(CCN(C)C)c3c2)cc1    8.89
CCN(CC)CCc1c[nH]c2ccc(OS(=O)(=O)C(F)(F)F)cc12    7.57
CCCN(CCC)CCc1c[nH]c2ccc(OS(=O)(=O)C(F)(F)F)cc12    7.64

From here, focus on the item given below.
I have this compound here, "NCCc1c[nH]c2ccc(OS(=O)(=O)C(F)(F)F)cc12" , and I need its recorded pKi.
7.74

###

# testedSystem: 5-hydroxytryptamine receptor 1D (Homo sapiens)
# procedureText: Compound was tested for binding affinity against cloned human 5-hydroxytryptamine 1D receptor alpha expressed in CHO-K1 cells.
# Assay type: cell-based
readoutLabel: Ki (nM)
Give just the numeric value; nM need not be written.

I have this compound here, "CCN(CC)CCc1c[nH]c2ccc(OS(=O)(=O)C(F)(F)F)cc12" , and I need its recorded Ki.
171

###

# procedureText: Distribution coefficient (LogD) of compound reported
# Assay type: physicochemical
# experimentalContext: octanol/water
A collection of molecules and their measured logD
Field format: numeric only.

# count of solved cases: 3
CN(C)CCc1c[nH]c2ccc(OCc3ccccc3)cc12    2.28
CCN(CC)CCc1c[nH]c2ccc(OS(=O)(=O)C(F)(F)F)cc12    1.31
CCCN(CCC)CCc1c[nH]c2ccc(OCc3ccccc3)cc12    3.08

From here, focus on the item given below.
I have this molecule here, "COc1ccc(CNC(=O)/C=C/c2ccc3[nH]cc(CCN(C)C)c3c2)cc1" , and I need its recorded logD.
1.71

###

A collection of molecules and their measured IC50
# testedSystem: 5-hydroxytryptamine receptor 1D (Homo sapiens, UniProt P28221)
# procedureText: Compound was tested for binding affinity against cloned human 5-hydroxytryptamine 1D receptor alpha expressed in CHO-K1 cells.
# Format: cell-based

# count of solved cases: 2
CCCN(CCC)CCc1c[nH]c2ccc(OCc3ccccc3)cc12    470 nM
CN(C)CCc1c[nH]c2ccc(OCc3ccccc3)cc12    76 nM

I have this molecule here, "CCCN(CCC)CCc1c[nH]c2ccc(O)cc12" , and I need its recorded IC50.
820 nM

I have this molecule here, "CCN(CC)CCc1c[nH]c2ccc(O)cc12" , and I need its recorded IC50.
77 nM

I have this molecule here, "CCN(CC)CCc1c[nH]c2ccc(OCc3ccccc3)cc12" , and I need its recorded IC50.
110 nM

###

# testedSystem: 5-hydroxytryptamine receptor 1D (Homo sapiens, UniProt P28221)
# procedureText: Displacement of [3H]-5-HT from human 5-hydroxytryptamine 1D receptor alpha expressed in HEK 293 cells
# Type: cell-based, HEK293
Threshold 100 nM: IC50 strictly smaller gives 1.0, otherwise 0.0.

Consider the following illustrative entries.
CCN(CC)CCc1c[nH]c2ccc(OCc3ccccc3)cc12    0.0
CCN(CC)CCc1c[nH]c2ccc(O)cc12    1.0
CCCN(CCC)CCc1c[nH]c2ccc(OCc3ccccc3)cc12    0.0
CCCN(CCC)CCc1c[nH]c2ccc(O)cc12    0.0

Problem: For the compound "CN(C)CCc1c[nH]c2ccc(OCc3ccccc3)cc12" , is IC50 under 100 nM?
1.0

###

# procedureText: Distribution coefficient (LogD) of compound reported
# Format: physicochemical
# experimentalContext: octanol/water
A collection of compounds and their measured logD
Field format: numeric only.

# count of solved cases: 3
NCCc1c[nH]c2ccc(OS(=O)(=O)C(F)(F)F)cc12    -0.24
CCN(CC)CCc1c[nH]c2ccc(O)cc12    0.28
CCCN(CCC)CCc1c[nH]c2ccc(O)cc12    1.24

I have this compound here, "CCCN(CCC)CCc1c[nH]c2ccc(OS(=O)(=O)C(F)(F)F)cc12" , and I need its recorded logD.
2.21

I have this compound here, "CCN(CC)CCc1c[nH]c2ccc(OCc3ccccc3)cc12" , and I need its recorded logD.
2.18

I have this compound here, "CN(C)CCc1c[nH]c2ccc(OS(=O)(=O)C(F)(F)F)cc12" , and I need its recorded logD.
1.41

###

A collection of molecules and their measured Ki
# testedSystem: D(2) dopamine receptor (Rattus norvegicus)
# Sequence (P61169 whole entry): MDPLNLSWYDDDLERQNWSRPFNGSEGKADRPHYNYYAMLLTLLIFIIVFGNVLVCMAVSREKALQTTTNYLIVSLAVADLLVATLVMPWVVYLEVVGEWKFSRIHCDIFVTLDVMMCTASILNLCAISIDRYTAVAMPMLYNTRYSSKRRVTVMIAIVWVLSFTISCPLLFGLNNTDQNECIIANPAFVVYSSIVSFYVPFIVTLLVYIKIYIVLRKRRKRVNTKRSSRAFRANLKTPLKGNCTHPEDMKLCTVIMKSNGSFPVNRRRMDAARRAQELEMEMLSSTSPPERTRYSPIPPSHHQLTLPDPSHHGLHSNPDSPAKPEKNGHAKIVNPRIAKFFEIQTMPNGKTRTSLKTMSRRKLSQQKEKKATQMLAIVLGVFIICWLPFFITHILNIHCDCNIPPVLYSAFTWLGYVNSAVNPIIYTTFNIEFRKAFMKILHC
# procedureText: Binding affinity for rat dopamine D2 receptor expressed in CHO-K1 cells

# count of solved cases: 4
CCN(CC)CCc1c[nH]c2ccc(OS(=O)(=O)C(F)(F)F)cc12    637 nM
NCCc1c[nH]c2ccc(OS(=O)(=O)C(F)(F)F)cc12    658 nM
CNS(=O)(=O)Cc1ccc2[nH]cc(CCN(C)C)c2c1    > 218 nM
CN(C)CCc1c[nH]c2ccc(OS(=O)(=O)C(F)(F)F)cc12    538 nM

I have this molecule here, "CCCN(CCC)CCc1c[nH]c2ccc(OS(=O)(=O)C(F)(F)F)cc12" , and I need its recorded Ki.
502 nM

###

# testedSystem: 5-hydroxytryptamine receptor 1B (Homo sapiens, UniProt P28222)
# Sequence (P28222 whole entry): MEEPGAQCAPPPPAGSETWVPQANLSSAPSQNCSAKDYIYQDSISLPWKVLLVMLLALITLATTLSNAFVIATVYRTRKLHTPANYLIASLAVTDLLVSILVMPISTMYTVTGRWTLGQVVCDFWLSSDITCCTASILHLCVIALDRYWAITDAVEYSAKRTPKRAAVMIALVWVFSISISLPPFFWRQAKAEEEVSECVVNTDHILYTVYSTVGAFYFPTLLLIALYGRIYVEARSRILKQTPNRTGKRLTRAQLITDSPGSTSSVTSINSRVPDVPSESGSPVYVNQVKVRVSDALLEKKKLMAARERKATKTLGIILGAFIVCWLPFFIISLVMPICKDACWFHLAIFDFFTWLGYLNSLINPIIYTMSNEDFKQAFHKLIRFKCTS
# procedureText: Compound was tested for binding affinity against human 5-hydroxytryptamine 1D receptor beta clones expressed in human embryonic kidney (HEK 293) cells line.
A collection of molecules and their measured IC50

Form entry - test system: 5-hydroxytryptamine receptor 1B (Homo sapiens, UniProt P28222); read-out: IC50; molecule: "CCN(CC)CCc1c[nH]c2ccc(OS(=O)(=O)C(F)(F)F)cc12"
530 nM

Form entry - test system: 5-hydroxytryptamine receptor 1B (Homo sapiens, UniProt P28222); read-out: IC50; molecule: "CN(C)CCc1c[nH]c2ccc(OS(=O)(=O)C(F)(F)F)cc12"
98 nM

Form entry - test system: 5-hydroxytryptamine receptor 1B (Homo sapiens, UniProt P28222); read-out: IC50; molecule: "CCCN(CCC)CCc1c[nH]c2ccc(OS(=O)(=O)C(F)(F)F)cc12"
660 nM
